# Tested on: Fibroblast
# MEASUREMENT DESCRIPTION: Multiplex assay against human fibroblast
# Format: toxicity, cell-based
# EXPERIMENTAL CONDITIONS: 48 h, 1 µM, compound concentration 1 uM, replicate 2
PARAMETER MEASURED: Population Tubulin-Different-Phenotype (%)
Note to self: number, then unit, no commentary.

Looking up `CCCS(=O)(=O)c1nc(NC2CC2)cc(-c2ccc3c(ccn3C3CC(C)(C)NC(C)(C)C3)c2)n1` , I see its Population Tubulin-Different-Phenotype (%) listed as 46%

Notebook: `O=C1NC(=O)C(c2cnc3ccccn23)=C1c1cn2c3c(cc(F)cc13)CN(C(=O)N1CCCCC1)CC2` , Population Tubulin-Different-Phenotype (%) read as 69%

// CN(C)C(=O)C(CCN1CCC(O)(c2ccc(Cl)cc2)CC1)(c1ccccc1)c1ccccc1.Cl [LOPERAMIDE HYDROCHLORIDE] : Population Tubulin-Different-Phenotype (%) value = 70%

Input `CCOc1cc2ncc(C#N)c(Nc3ccc(OCc4ccccn4)c(Cl)c3)c2cc1NC(=O)/C=C/CN(C)C` . Output Population Tubulin-Different-Phenotype (%): 14%

Recorded result, `Cl.O=c1c2cccn2c2ccccc2n1CCCN1CCC(c2ccc(Cl)cc2)CC1` , Population Tubulin-Different-Phenotype (%): 55%

So for `Cl.Oc1ccc2c3c1O[C@H]1c4[nH]c5c(c4C[C@@]4(O)[C@@H](C2)N(CC2CC2)CC[C@]314)C[C@@]1(O)[C@H]2Cc3ccc(O)c4c3[C@@]1(CCN2CC1CC1)[C@H]5O4` , the logged Population Tubulin-Different-Phenotype (%) turned out to be 26%

The reported value for `O=C(Nc1ccc(Cl)cc1)Nc1cccc(-c2cccc(N3CCCC3)n2)c1` in terms of Population Tubulin-Different-Phenotype (%) is 34%

Looking up `CCOc1cc(C(=O)N2CCC(N3CCN(C)CC3)CC2)ccc1Nc1ncc2c(n1)N(C1CCCC1)c1ccccc1C(=O)N2C` , I found its Population Tubulin-Different-Phenotype (%) recorded as 63%

Kindly note the recorded Population Tubulin-Different-Phenotype (%) for `O=C(Cc1ccc(-c2ccc(OCCN3CCOCC3)cc2)cn1)NCc1ccccc1` , which is 15%

Reported Population Tubulin-Different-Phenotype (%) of `C=C1/C(=C\C=C2/CCC[C@]3(C)[C@@H]([C@H](C)/C=C/[C@H](C)C(C)C)CC[C@@H]23)C[C@@H](O)C[C@@H]1O` : 37%

Recorded result, `CCn1c(=O)c(-c2ccc(-c3cncs3)cc2Cl)cc2cnc(Nc3ccc(N4CCN(C)CC4)cc3)nc21` , Population Tubulin-Different-Phenotype (%): 20%

The compound listed as `O=C(Nc1ccc(-c2ccnc(Nc3ccc(N4CCOCC4)cc3)n2)cc1)[C@@H]1CCCN1` has a reported Population Tubulin-Different-Phenotype (%) of 30%

Form: compound = `Cc1cn(-c2cc(NC(=O)c3ccc(C)c(Nc4nccc(-c5cccnc5)n4)c3)cc(C(F)(F)F)c2)cn1` ; Population Tubulin-Different-Phenotype (%) = 5%

Population Tubulin-Different-Phenotype (%) measured on `CCN1CCN(Cc2ccc(Nc3ncc(F)c(-c4cc(F)c5nc(C)n(C(C)C)c5c4)n3)nc2)CC1.CS(=O)(=O)O` = 61%

`COc1cc(N2CCN(C)CC2)ccc1Nc1ncc2c(n1)N(C)c1ccccc1C(=O)N2C` yielded Population Tubulin-Different-Phenotype (%) of 28%

Entry CN1CCC(=C2c3ccccc3CC(=O)c3sccc32)CC1.O=C(O)/C=C/C(=O)O [KETOTIFEN FUMARATE] ; Population Tubulin-Different-Phenotype (%) = 32%

The measured Population Tubulin-Different-Phenotype (%) associated with `CCCn1c(=O)c2[nH]c(-c3cnn(Cc4cccc(C(F)(F)F)c4)c3)nc2n(CC)c1=O` reads 35%

Recorded Population Tubulin-Different-Phenotype (%) (compound `O=C1N/C(=N/c2ccccc2F)S/C1=C\c1ccc(C(=O)O)cc1` ): 33%

Record summary for `CCc1cccc(CC)c1NC(=O)c1nn(C)c2c1CCc1cnc(Nc3ccc(C(=O)NC4CCN(C)CC4)cc3OC(F)(F)F)nc1-2` : reported Population Tubulin-Different-Phenotype (%) = 42%

GET /value?item= `CNc1cc(Oc2cc(C(=O)Nc3cc(N4CCN(C)CC4)cc(C(F)(F)F)c3)ccc2C)ncn1` &field=Population Tubulin-Different-Phenotype (%) returns 49%

Form field Population Tubulin-Different-Phenotype (%), entry `O=C(Nc1ccc(-n2nc(-c3cccnc3)cc2C(F)(F)F)cn1)c1ccc(-c2ccccc2)c(F)c1` : 5%

Reported Population Tubulin-Different-Phenotype (%) of CN1C2CCC1CC(OC(c1ccc(F)cc1)c1ccc(F)cc1)C2.Cl (stereo not given) : 47%

Input `Cc1cc(C)c(S(=O)(=O)N(Cc2ccc(-c3cccc(S(C)(=O)=O)c3)cc2)Cc2ccc(C(F)(F)F)o2)c(C)c1` . Output Population Tubulin-Different-Phenotype (%): 32%

Looking up `Cc1ccc(C(=O)Nc2cccc(C(F)(F)F)c2)cc1Nc1nc(-c2cccnc2)nc2c1cnn2C` , I see its Population Tubulin-Different-Phenotype (%) listed as 63%

get_value(item= `S=C(NCCCc1c[nH]cn1)NCCCN(Cc1ccc(Cl)c(Cl)c1)c1ccc(Br)cn1` , readout=Population Tubulin-Different-Phenotype (%)) returns 63%

Taken from ChEMBL document CHEMBL4689842.
